assay: Solubility of the compound in aqueous buffer at pH 7.4 after 24 hrs by LC-MS/MS analysis; format: physicochemical
MEASURED_PARAMETER: solubility at 24 h (µM)
Please state the figure in µM; there is no need to write the unit.

Solved entries (count: 4):
MOL_SMILES: CCn1c(CCCc2ccc(-c3cnc(NS(=O)(=O)c4ccccc4)cn3)cc2)nn(Cc2ccc(C(C)(C)C)cc2)c1=O
MEASURED_PARAMETER: solubility at 24 h
MEASURED_VALUE: 4.9

MOL_SMILES: CCn1c(CCCc2ccc(-c3ccc(NS(=O)(=O)c4ccccc4)cc3)cc2)nn(Cc2ccc(C(C)(C)C)cc2)c1=O
MEASURED_PARAMETER: solubility at 24 h
MEASURED_VALUE: 0.018

MOL_SMILES: CCn1c(CCCc2ccc(-c3ccc(NS(=O)(=O)Cc4ccccc4)cc3)cc2)nn(Cc2ccc(C(C)(C)C)cc2)c1=O
MEASURED_PARAMETER: solubility at 24 h
MEASURED_VALUE: 0.012

MOL_SMILES: CCn1c(CCCc2ccc(-c3ccc(NS(=O)(=O)c4ccc(-c5ccc(OC)cc5)cc4)cc3)cc2)nn(Cc2ccc(C(C)(C)C)cc2)c1=O
MEASURED_PARAMETER: solubility at 24 h
MEASURED_VALUE: 0.082

QUERY: Using known records, supply solubility at 24 h for "CCn1c(CCCc2ccc(-c3ccc(NS(C)(=O)=O)cn3)cc2)nn(Cc2ccc(C(C)(C)C)cc2)c1=O"
RESULT: 0.423

QUERY: Using known records, supply solubility at 24 h for "CCn1c(CCCc2ccc(-c3ncc(NS(=O)(=O)c4ccccc4)cn3)cc2)nn(Cc2ccc(C(C)(C)C)cc2)c1=O"
RESULT: 0.091

QUERY: Using known records, supply solubility at 24 h for "CCn1c(CCCc2ccc(-c3ccc(NS(=O)(=O)c4ccccc4)nc3)cc2)nn(Cc2ccc(C(C)(C)C)cc2)c1=O"
RESULT: 0.014

QUERY: Using known records, supply solubility at 24 h for "CCn1c(CCCc2ccc(-c3ccc(NS(=O)(=O)c4ccccc4)cn3)cc2)nn(Cc2ccc(C(C)(C)C)cc2)c1=O"
RESULT: 1.5

QUERY: Using known records, supply solubility at 24 h for "CCn1c(CCCc2ccc(-c3cccc(NS(=O)(=O)c4ccccc4)c3)cc2)nn(Cc2ccc(C(C)(C)C)cc2)c1=O"
RESULT: 0.037
